Let's look at some pKi data for Prothrombin (Bos taurus) that I collected from the literature.
// pKi here means minus log10 of the molar concentration (mol/L)

Some solved cases for reference:
INSERT INTO assay_data (compound, measurement_label, reported_value) VALUES
  ('N=C(N)c1cccc(C[C@H](NS(=O)(=O)c2cccc(NC(=O)CCN)c2)C(=O)N2CCC(NC(=O)NCc3ccccc3)CC2)c1', 'pKi', 5.11),
  ('NCCCCNC(=O)[C@@H]1Cc2ccc(cc2)NC(=O)CCN2CCN(CCC(=O)Nc3ccc(cc3)C[C@@H](NS(=O)(=O)NC3CCCCC3)C(=O)N1)CC2', 'pKi', 4.66),
  ('CC1CCN(C(=O)[C@H](Cc2cccc(C(=N)N)c2)NS(=O)(=O)c2cccc3cccnc23)CC1', 'pKi', 6.47),
  ('N=C(N)c1ccc(CNC(=O)[C@@H]2Cc3ccc(cc3)NC(=O)CN3CCN(CC3)CC(=O)Nc3ccc(cc3)C[C@@H](NC(=O)CCCc3ccccc3)C(=O)N2)cc1', 'pKi', 5.06),
  ('N=C(N)c1cccc(C[C@H](NS(=O)(=O)c2cccc(-c3ccc(Cl)c(Cl)c3)c2)C(=O)N2CCC(CCN)CC2)c1', 'pKi', 7.52);

Input line: # query: pKi of entry "CC[C@H](C)[C@@H]1NC(=O)[C@@H]2CCCN2C(=O)[C@@H]2CCCN2C(=O)[C@H]([C@@H](C)CC)NC(=O)[C@H](CO)NC(=O)[C@H](CCCCN)NC(=O)[C@H]([C@@H](C)O)NC(=O)[C@@H]2CSSC[C@H](NC1=O)C(=O)N[C@@H](Cc1ccc(-c3ccccc3)cc1)C(=O)N1CCC[C@@H]1C(=O)N[C@@H](CC(=O)O)C(=O)NCC(=O)N[C@@H](CCCNC(=N)N)C(=O)N2"
Output line: 4.59

Input line: # iterate: CC1CNc2c(cccc2S(=O)(=O)NC(CCCN=C(N)N)C(=O)N2CCC(CC(=O)O)CC2)C1 (stereo not drawn)
Output line: 5.59

Input line: # iterate: "N=C(N)c1cccc(C[C@H](NS(=O)(=O)c2ccc3ccccc3c2)C(=O)N2Cc3ccccc3C=C2C(=O)O)c1"
Output line: 6.92

Input line: # iterate: CC(C)(c1ccccc1)c1cccc(S(=O)(=O)NC(CCCNC(=N)N)C(=O)N2CCc3ccccc3C2)c1 (stereo not drawn)
Output line: 7.31

Input line: # iterate: "N=C(N)c1ccc2c(ccn2Cc2ccccc2)c1"
Output line: 4.70

Input line: # iterate: "CCNC(=O)NC1CCN(C(=O)[C@H](Cc2cccc(C(=N)N)c2)NS(=O)(=O)c2cccc(NC(=O)CCN)c2)CC1"
Output line: 4.82

Input line: # iterate: "CC1CCN(C(=O)[C@H](Cc2cccc(C(=N)N)c2)NC(=O)OC(C)(C)C)CC1"
Output line: 5.92

Input line: # iterate: CC1CNc2c(cccc2S(=O)(=O)NC(CCCNC(=N)N)C(=O)N2CCC(CCCO)CC2)C1 (stereo not drawn)
Output line: 6.73

###

Let's look at some log10 Ki data for Prothrombin (Bos taurus) that I collected from the literature.
Field: value | Transform: log10 | Quantity: Ki | Unit: nM

INSERT INTO results (compound, measurement_label, reported_value) VALUES
  ('N=C(N)N1CCCC(C(=O)Nc2cccc(OCc3ccc(F)cc3)c2)C1 (stereo not drawn)', 'log10 Ki', 5.20),
  ('COc1ccc(-c2cccc(S(=O)(=O)N[C@@H](Cc3cccc(C(=N)N)c3)C(=O)N3CCN(C(=O)OC(C)(C)C)CC3)c2)c(OC)c1', 'log10 Ki', 1.08);

Input line: # query: log10 Ki of entry "CNC(=O)CCCC1CCN(C(=O)[C@H](Cc2cccc(C(=N)N)c2)NS(=O)(=O)c2cccc(-c3ccc(Cl)cc3Cl)c2)CC1"
Output line: 0.00

Input line: # iterate: "N=C(N)N1CCC(C(=O)Nc2cccc(OCc3ccc(F)cc3)c2)CC1"
Output line: 4.32

Input line: # iterate: "O=C(Nc1cccc(OCc2ccc(-c3ccc(F)cc3F)cc2)c1)C1CCNCC1"
Output line: 4.73

Input line: # iterate: "N=C(N)c1ccc(Cn2ccc3cc([N+](=O)[O-])ccc32)cc1"
Output line: 5.21

Input line: # iterate: "N=C(N)c1cccc(C[C@H](NS(=O)(=O)c2ccc3ccccc3c2)C(=O)N2CCN(C(=O)CO)CC2)c1"
Output line: 1.76

Input line: # iterate: "CC(C)(C)NC(=O)NC1CCN(C(=O)[C@H](Cc2cccc(C(=N)N)c2)NS(=O)(=O)c2cccc(-c3ccc(C(=N)N)cc3)c2)CC1"
Output line: 2.65
